The measured values listed here are drawn from ChEMBL document CHEMBL2029223.

# targetUnderTest: Bcl-2-like protein 1 (Homo sapiens, UniProt Q07817)
# Sequence (Q07817 whole entry): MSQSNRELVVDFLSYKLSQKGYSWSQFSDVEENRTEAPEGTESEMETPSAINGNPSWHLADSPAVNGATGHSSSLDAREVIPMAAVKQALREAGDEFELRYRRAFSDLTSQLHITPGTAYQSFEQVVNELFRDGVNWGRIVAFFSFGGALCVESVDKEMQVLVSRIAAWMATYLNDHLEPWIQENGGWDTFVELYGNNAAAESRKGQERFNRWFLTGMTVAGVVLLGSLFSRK
Exercise: for every item that follows, state its recorded pIC50.
Give bare numbers, as −log10 of the molar value.

Example molecules with recorded pIC50:
{"columns": ["smilesNotation", "targetUnderTest", "pIC50"],
 "data": [
  ["CCCCN(CCCC)C(=O)c1nn(-c2ccc(C(=O)NS(=O)(=O)c3ccc4ccccc4c3)cc2C(=O)N2Cc3ccccc3C[C@H]2COCCCOC)c(C)c1Cl", "Bcl-2-like protein 1 (Homo sapiens, UniProt Q07817)", 7.54],
  ["CCCCN(CCCC)C(=O)c1nn(-c2ccc(C(=O)NS(=O)(=O)c3ccc4cccc(OCCN5CCOCC5)c4c3)cc2C(=O)N2CCc3ccccc3C2)c(C)c1Cl", "Bcl-2-like protein 1 (Homo sapiens, UniProt Q07817)", 7.39]
]}

Could you now look at the following molecule, please?
**Query** Any idea what its pIC50 is? The molecule is "CCCCN(CCCC)C(=O)c1nn(-c2ccc(C(=O)NS(=O)(=O)c3ccc4c(c3)CCN4)cc2C(=O)N2CCc3ccccc3C2)c(C)c1Cl"
**Result** 7.64

* * *

# targetUnderTest: Apoptosis regulator Bcl-2 (Homo sapiens, UniProt P10415)
# Sequence (P10415 whole entry): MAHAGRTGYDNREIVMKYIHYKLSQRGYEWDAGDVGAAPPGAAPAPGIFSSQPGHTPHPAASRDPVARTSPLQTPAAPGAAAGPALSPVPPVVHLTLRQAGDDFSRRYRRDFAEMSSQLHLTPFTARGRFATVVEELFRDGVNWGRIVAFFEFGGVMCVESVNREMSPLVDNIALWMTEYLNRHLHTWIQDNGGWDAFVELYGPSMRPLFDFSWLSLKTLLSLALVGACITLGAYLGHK
pIC50: −log10 of the molar value.
Quick rule: pIC50 of at least 7 means 1, below that means 0.

Please review the entries below; each comes with its answer.
{"columns": ["compound", "classification"],
 "data": [
  ["CCCCN(CCCC)C(=O)c1nn(-c2ccc(C(=O)NS(=O)(=O)c3ccc4cccc(S(=O)(=O)CC)c4c3)cc2C(=O)N2CCc3ccccc3C2)c(C)c1Cl", 0],
  ["CCCCN(CCCC)C(=O)c1nn(-c2ccc(C(=O)NS(=O)(=O)c3ccc4ccccc4c3)cc2C(=O)N2CCc3ccccc3C2C)c(C)c1Cl (configuration not stated)", 0],
  ["CCCCN(CCCC)C(=O)c1nn(-c2ccc(C(=O)NS(=O)(=O)c3ccc4ccc(OCCN5CCOCC5)cc4c3)cc2C(=O)N2CCc3ccccc3C2)c(C)c1Cl", 0],
  ["CCCCN(CCCC)C(=O)c1nn(-c2ccc(C(=O)NS(=O)(=O)c3ccc4ccccc4c3)cc2C(=O)N2Cc3ccccc3C[C@H]2COCCN(C)C)c(C)c1Cl", 1],
  ["CCCCN(CCCC)C(=O)c1nn(-c2ccc(C(=O)NS(=O)(=O)c3ccc4ccccc4c3)cc2C(=O)N2Cc3ccccc3C[C@H]2CN2CCCC2)c(C)c1Cl", 1],
  ["CCCCN(CCCC)C(=O)c1nn(-c2ccc(C(=O)NS(=O)(=O)c3ccc4c(c3)CCN4)cc2C(=O)N2CCc3ccccc3C2)c(C)c1Cl", 1]
]}

// switching to the query compound
**Query** Form field: pIC50 at least 7? Entry: "CCCCN(CCCC)C(=O)c1nn(-c2ccc(C(=O)NS(=O)(=O)c3ccc4c(c3)CCN4C(=O)c3ccc(Cl)c(Cl)c3)cc2C(=O)N2CCc3ccccc3C2)c(C)c1Cl"
**Result** 0

* * *

Record set of pIC50 for target or system Bcl-2-like protein 1 (Homo sapiens).
Numbers only, as −log10 of the molar value.

{"columns": ["smilesNotation", "pIC50"],
 "data": [
  ["CCCCN(CCCC)C(=O)c1nn(-c2ccc(C(=O)NS(=O)(=O)c3ccc4ccccc4c3)cc2C(=O)N2Cc3ccccc3C[C@H]2COCCN(C)C)c(C)c1Cl", 7.33],
  ["CCCCN(CCCC)C(=O)c1nn(-c2ccc(C(=O)NS(=O)(=O)c3ccc4ccc(I)cc4c3)cc2C(=O)N2CCc3ccccc3C2)c(C)c1Cl", 7.33],
  ["CCCCN(CCCC)C(=O)c1nn(-c2ccc(C(=O)NS(=O)(=O)c3ccc4ccccc4c3)cc2C(=O)N2Cc3ccccc3C[C@H]2CN2CCN(C)CC2)c(C)c1Cl", 7.66],
  ["CCCCN(CCCC)C(=O)c1nn(-c2ccc(C(=O)NS(=O)(=O)c3ccc4ccccc4c3)cc2C(=O)N2CNc3ccccc3C2)c(C)c1Cl", 7.59],
  ["CCCCN(CCCC)C(=O)c1nn(-c2ccc(C(=O)NS(=O)(=O)c3ccc4ccccc4c3)cc2C(=O)N2COc3ccccc3C2)c(C)c1Cl", 7.21]
]}

**Query** Sample "CCCCN(CCCC)C(=O)c1nn(-c2ccc(C(=O)NS(=O)(=O)c3ccc4c(c3)CCN4Cc3ccc(Cl)c(Cl)c3)cc2C(=O)N2CCc3ccccc3C2)c(C)c1Cl" — what was its pIC50?
**Result** 7.36
